System: 299254-011-R-J1-PDC complex spheroid viability;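 further: spheroids exposed to drugs for one week before measurement; percent viability relative to DMSO vehicle control taken as 100%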
Experiment: Anticancer human tumor 299254-011-R-J1-PDC patient-derived melanoma cell line growth inhibition [POLQ]
Details: second compound 0.1 µM; first compound 10 µM; active compounds read low
List of viability, T/C values.

- molecule: "O=C(c1cc(Cc2n[nH]c(=O)c3ccccc23)ccc1F)N1CCN(C(=O)C2CC2)CC1 + COC1C(OC(N)=O)C(O)C(Oc2ccc3c(O)c(NC(=O)c4ccc(O)c(CC=C(C)C)c4)c(=O)oc3c2C)OC1(C)C"
  subject.of.test: "299254-011-R-J1-PDC complex spheroid viability"
  viability, T/C / %: 93.6
- molecule: "CC1COCCN1c1cc(C2(O)CC3CCC(C2)O3)c2cnn(-c3ccn[nH]3)c2n1 (stereo not given) + Cc1cccc(N(C)C(=O)C2C(O)CCN2c2nc(C)cc(C(F)(F)F)c2C#N)c1"
  subject.of.test: "299254-011-R-J1-PDC complex spheroid viability"
  viability, T/C / %: 9.48
- molecule: "C=CC(=O)N1CCN(c2nc(=O)n(-c3c(C)ccnc3C(C)C)c3nc(-c4c(O)cccc4F)c(F)cc23)C(C)C1 (stereo not given) + Cc1cccc(N(C)C(=O)C2C(O)CCN2c2nc(C)cc(C(F)(F)F)c2C#N)c1"
  subject.of.test: "299254-011-R-J1-PDC complex spheroid viability"
  viability, T/C / %: 58.7
- molecule: "CNCc1ccc(-c2[nH]c3cc(F)cc4c3c2CCNC4=O)cc1 + Nc1ccc(C#CCN(C(=O)Cc2ncc(C(F)(F)F)cc2C(F)(F)F)c2ccc(F)cc2)nn1"
  subject.of.test: "299254-011-R-J1-PDC complex spheroid viability"
  viability, T/C / %: 109
- molecule: "COc1ccc([C@@H](O)c2cc(-c3ncnc4cc(N5CCOCC5)ccc34)c(F)cc2Cl)nn1 + COC1C(OC(N)=O)C(O)C(Oc2ccc3c(O)c(NC(=O)c4ccc(O)c(CC=C(C)C)c4)c(=O)oc3c2C)OC1(C)C"
  subject.of.test: "299254-011-R-J1-PDC complex spheroid viability"
  viability, T/C / %: 45.4
